# TEST_TARGET: Virion infectivity factor (Human immunodeficiency virus type 1 group M subtype B (isolate BH10)) + Virion infectivity factor (Human immunodeficiency virus type 1 group M subtype B (isolate BRU/LAI)) + Virion infectivity factor (Human immunodeficiency virus type 1 group M subtype B (isolate PCV12)) + Virion infectivity factor (Human immunodeficiency virus type 1 group M subtype B (isolate HXB2)) + DNA dC->dU-editing enzyme APOBEC-3G (Homo sapiens) (UniProt P69720+P69721+P69722+P69723+Q9HC16)
# TEST: inhibitors of Vif binding to APOBEC3G peptide, primary screen, biochemical, TR-FRET, GST-Vif 1-94, biotin-A3G peptide, dose response retest (AID 1117319);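 also: Vif residues 1-94 fused to GST binding biotinylated APOBEC3G peptide 110-148; 0% = full assay without inhibitor and 100% = GST in place of GST-Vif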
# CONDITIONS: stronger effect = higher value
The campaign covered roughly 260,000 compounds. About 1,500 (0.58%) were called active. About 5% were inconclusive and are not listed. A selection follows. Entries with a potency or affinity are not part of this list.
OUTCOME_MEASURE: inhibition

Assign inhibition to the following record: "COc1ccccc1NC(=O)CSc1nnc(CC(=O)Nc2ccccc2C)n1C" -12.1% (inactive)

# return recorded inhibition for entry "Cc1ccccc1-n1nc2c(c1NC(=O)c1cc3ccccc3o1)CS(=O)(=O)C2" 0.92% (inactive)

State its inhibition for this molecule: COc1ccc2c(c1OC)C(=O)OC2CC(=O)c1ccc2c(c1)OCO2 (stereo not drawn) -2.78% (inactive)

Specify inhibition for "N#Cc1c(-c2cccc(Br)c2)cc(-c2ccco2)[nH]c1=O" and stop. 15.1% (inactive)

State its inhibition for this molecule: "COc1ccc(C(=O)Nc2nc(CC(=O)NCCc3cccc(OC)c3)cs2)cc1" 0.4% (inactive)

Entry "C/C(=N\Nc1ccc(F)cc1)c1ccc(N2CCOCC2)c(F)c1" needs its inhibition filled in; supply it. 6.07% (inactive)

Name the recorded inhibition of the item "COC(=O)c1ccccc1-c1ccc(/C=N/NC(N)=O)o1" in your answer. -4.17% (inactive)

Output measured inhibition for this item: "Cc1ccc(NC(=O)Nc2ccc3c(c2)nc(C)n3C)cc1" 66.9% (inactive)

Identify measured inhibition corresponding to "COC(=O)c1ccccc1-c1ccc(C=O)o1" -12.2% (inactive)

Consider the molecule "CCc1ccc(CN(Cc2cccnc2)C(=O)/C=C/c2ccc(OC)cc2)cc1" and give its recorded inhibition. -6.21% (inactive)

Read the entry "O=C(Cn1cnc2ccccc21)NCCCN1CCOCC1" and write its reported inhibition. -5.55% (inactive)

Read off the recorded inhibition for "CC(=O)c1ccc(NC(=O)Nc2ccc3c(c2)nc(C)n3C)cc1" 11.4% (inactive)

For "O=C(Nc1ccccc1)c1ccc(Cn2cc(C(F)(F)F)ccc2=O)cc1" , write its inhibition. -1.59% (inactive)

Please give the documented inhibition of COc1ccccc1NC(=O)C(C)N1C(=O)C2CCCCC2C1=O (stereo not drawn) 9.66% (inactive)

Quote inhibition reported for "O=C(COC(=O)CCCSc1nc2ccccc2[nH]1)Nc1cccc(F)c1" please. -3.43% (inactive)

Let me know recorded inhibition for "CCc1ccc(OCc2nnc(SCc3ccc(C(=O)O)cc3)o2)cc1" , thanks. -1.45% (inactive)

Could you please provide reported inhibition for "Cc1cc(-c2ccccc2)[nH]c(=O)c1C#N" ? Thanks! -1.26% (inactive)

Let me know recorded inhibition for "COc1ccc(-c2cc(C(F)(F)F)c(C#N)c(=O)[nH]2)cc1" , thanks. -2.26% (inactive)

Using the record for "N#Cc1c(-c2ccccc2)cc(-c2ccccc2)[nH]c1=O" , state its measured inhibition. -8.66% (inactive)

Check the records and state inhibition for "O[C@H]1C[C@H](c2ccccc2)N(CC2CCCCC2)C[C@@H]1n1cc(C2CC2)nn1" -3.24% (inactive)

For the molecule "O=C(O)c1ccc(CSc2nnc(COc3ccccc3)o2)cc1" , give its measured inhibition value. -5.6% (inactive)

Provide inhibition value for the following molecule: "N#C/C(=C\c1cccs1)C(=O)N1CCOCC1" 4.24% (inactive)

Provide inhibition value for the following molecule: "Cc1ccc(C)c(/C=N/n2cc(-c3ccccc3)[nH]c2=S)c1" -9.36% (inactive)
